The values you see were collected from ChEMBL document CHEMBL4483862.

Tested on: Plasmodium berghei
protocol.notes: Luciferase/luciferin-expressing antifolate-resistant parasites were used to infect a culture of HepG2 cells that were pre-incubated with compounds. Infected hepatocytes emit light due to the luciferase reaction. Assay results are presented as the percent inhibition of light emission compared to control. […]
Format: functional
run.parameters: sporozoite, FFLUC_HILL_SLOPE 106, FFLUC_R_SQUARED 0.375, read-out: LUCIFERASE INFECTION ASSAY - IC50
pIC50: −log10 of the molar value.
quantity: pIC50

Query block: Query: pIC50; subject: O=c1[nH]nc(Sc2ncc([N+](=O)[O-])s2)n1-c1ccccc1C(F)(F)F
Result block: < 5.07

----------
Tested on: Plasmodium berghei
protocol.notes: Luciferase/luciferin-expressing antifolate-resistant parasites were used to infect a culture of HepG2 cells that were pre-incubated with compounds. Infected hepatocytes emit light due to the luciferase reaction. Assay results are presented as the percent inhibition of light emission compared to control. […]
Type: functional
run.parameters: sporozoite, PBLUC_HILL_SLOPE 5.24, PBLUC_R_SQUARED 0.165, read-out: LUCIFERASE INFECTION ASSAY - IC50
quantity: pIC50
Lab note — pIC50 values are minus log10 of concentrations in M.

Query block: Returns the measured pIC50 for the input molecule. Input: O=C(NCc1sccc1Cl)Nc1cccc(Cl)c1
Result block: 5.14

----------
System: Plasmodium berghei
protocol.notes: Luciferase/luciferin-expressing antifolate-resistant parasites were used to infect a culture of HepG2 cells that were pre-incubated with compounds. Infected hepatocytes emit light due to the luciferase reaction. Assay results are presented as the percent inhibition of light emission compared to control. […]
Type: functional
run.parameters: sporozoite, HEPG2TOX_HILL_SLOPE 1.8, HEPG2TOX_R_SQUARED 0.881, PBLUC_HILL_SLOPE 18.6, PBLUC_R_SQUARED 0.206, read-out: LUCIFERASE INFECTION ASSAY - IC50
quantity: pIC50
Please report pIC50 as the negative decimal logarithm of the molar concentration, giving only the number.

Query block: Could you share which pIC50 value was measured for COc1ccc(-c2nonc2NC(=O)c2oc3cc(C)ccc3c2C)cc1OC ?
Result block: 5.56

----------
Tested on: Plasmodium berghei
protocol.notes: Luciferase/luciferin-expressing antifolate-resistant parasites were used to infect a culture of HepG2 cells that were pre-incubated with compounds. Infected hepatocytes emit light due to the luciferase reaction. Assay results are presented as the percent inhibition of light emission compared to control. […]
Assay type: functional
run.parameters: sporozoite, HEPG2TOX_HILL_SLOPE 0.594, HEPG2TOX_R_SQUARED 0.62, read-out: LUCIFERASE INFECTION ASSAY - IC50
quantity: IC50

Query block: Reported IC50, compound CN(CC(=O)Nc1ccc(Cl)c(S(=O)(=O)N2CCOCC2)c1)C(=O)/C=C/c1cccs1 : ____
Result block: > 10 µM

----------
System: Plasmodium berghei
protocol.notes: Luciferase/luciferin-expressing antifolate-resistant parasites were used to infect a culture of HepG2 cells that were pre-incubated with compounds. Infected hepatocytes emit light due to the luciferase reaction. Assay results are presented as the percent inhibition of light emission compared to control. […]
Type: functional
run.parameters: sporozoite, HEPG2TOX_HILL_SLOPE 11.8, HEPG2TOX_R_SQUARED 0.0956, PBLUC_HILL_SLOPE 13.2, PBLUC_R_SQUARED 0.651, read-out: LUCIFERASE INFECTION ASSAY - IC50
quantity: IC50 (µM)
State the answer as a number, implicitly in µM.

Query block: Hello, I am looking for reported IC50 with Plasmodium berghei for CC1CCCC(C)N1CC(O)COC1CCC(C(C)(C)C)CC1 (stereo unspecified) . Could you help?
Result block: 3.06

----------
Test system: Plasmodium berghei
protocol.notes: Luciferase/luciferin-expressing antifolate-resistant parasites were used to infect a culture of HepG2 cells that were pre-incubated with compounds. Infected hepatocytes emit light due to the luciferase reaction. Assay results are presented as the percent inhibition of light emission compared to control. […]
Format: functional
run.parameters: sporozoite, FFLUC_HILL_SLOPE 0.804, FFLUC_R_SQUARED 0.918, PBLUC_HILL_SLOPE 0.696, PBLUC_R_SQUARED 0.659, read-out: LUCIFERASE INFECTION ASSAY - IC50
quantity: pIC50
// scale note: pIC50 = -log10(conc_M); give the bare number

Query block: Report pIC50 for Nc1ncnc(N/N=C/c2ccc(C3=CCCC3)s2)c1[N+](=O)[O-] please.
Result block: 6.33

----------
Test system: Plasmodium berghei
protocol.notes: Luciferase/luciferin-expressing antifolate-resistant parasites were used to infect a culture of HepG2 cells that were pre-incubated with compounds. Infected hepatocytes emit light due to the luciferase reaction. Assay results are presented as the percent inhibition of light emission compared to control. […]
Format: functional
run.parameters: sporozoite, FFLUC_HILL_SLOPE 11.7, FFLUC_R_SQUARED 0.493, read-out: LUCIFERASE INFECTION ASSAY - IC50
quantity: IC50

Query block: For COc1ccc(Cl)cc1C(=O)NNC(=O)c1oc2ccccc2c1CSC1CCCCC1 , what is its reported IC50?
Result block: > 10 µM

----------
Tested on: Plasmodium berghei
protocol.notes: Luciferase/luciferin-expressing antifolate-resistant parasites were used to infect a culture of HepG2 cells that were pre-incubated with compounds. Infected hepatocytes emit light due to the luciferase reaction. Assay results are presented as the percent inhibition of light emission compared to control. […]
Type: functional
run.parameters: sporozoite, PBLUC_HILL_SLOPE 2.12, PBLUC_R_SQUARED 0.451, read-out: LUCIFERASE INFECTION ASSAY - IC50
quantity: IC50 (µM)
Numbers only here, please. The scale is µM.

Query block: Which IC50 value belongs to Cc1cccnc1NC(=O)c1ccc(Cl)c(S(=O)(=O)N(Cc2ccccc2)c2ccccc2)c1 ?
Result block: 5.79

----------
Test system: Plasmodium berghei
protocol.notes: Luciferase/luciferin-expressing antifolate-resistant parasites were used to infect a culture of HepG2 cells that were pre-incubated with compounds. Infected hepatocytes emit light due to the luciferase reaction. Assay results are presented as the percent inhibition of light emission compared to control. […]
Type: functional
run.parameters: sporozoite, HEPG2TOX_HILL_SLOPE 1.57, HEPG2TOX_R_SQUARED 0.723, PBLUC_HILL_SLOPE 2.26, PBLUC_R_SQUARED 0.44, read-out: LUCIFERASE INFECTION ASSAY - IC50
quantity: IC50

Query block: Value lookup for IC50; key = COc1cccc(CN(C)S(=O)(=O)NC2CCC(C)CC2)c1 (stereo unspecified)
Result block: 7.19 µM

----------
Tested on: Plasmodium berghei
protocol.notes: Luciferase/luciferin-expressing antifolate-resistant parasites were used to infect a culture of HepG2 cells that were pre-incubated with compounds. Infected hepatocytes emit light due to the luciferase reaction. Assay results are presented as the percent inhibition of light emission compared to control. […]
Type: functional
run.parameters: sporozoite, read-out: LUCIFERASE INFECTION ASSAY - IC90
quantity: IC90

[
  {
    "compound": "CC(C)c1ccc(/C=C/c2ccc(=O)[nH]n2)cc1",
    "result": "0.563 µM"
  },
  {
    "compound": "Cc1sc2ncnc(N3CCC(C(=O)Nc4nnc(-c5cccc([N+](=O)[O-])c5)o4)CC3)c2c1C",
    "result": "> 10 µM"
  },
  {
    "compound": "Oc1ccc(CN2CCN(c3ccccn3)CC2)c2cccnc12",
    "result": "> 10 µM"
  },
  {
    "compound": "O=C(COc1ccccc1CSc1ccc(Cl)cc1)N/N=C/c1ccccc1Cl",
    "result": "> 7.41 µM"
  }
]

Query block: For the compound CSc1sc(Cl)c(-c2ccc(Cl)cc2)c1C#N , what IC90 is on record?
Result block: > 11 µM

----------
Test system: Plasmodium berghei
protocol.notes: Luciferase/luciferin-expressing antifolate-resistant parasites were used to infect a culture of HepG2 cells that were pre-incubated with compounds. Infected hepatocytes emit light due to the luciferase reaction. Assay results are presented as the percent inhibition of light emission compared to control. […]
Type: functional
run.parameters: sporozoite, FFLUC_HILL_SLOPE 0.837, FFLUC_R_SQUARED 0.9, PBLUC_HILL_SLOPE 0.352, PBLUC_R_SQUARED 0.709, read-out: LUCIFERASE INFECTION ASSAY - IC50
quantity: IC50 (nM)
Express it in nM; write the number only.

Query block: Recorded IC50 for CC(=O)c1c(C)[nH]c(C(=O)Nc2nc3ccccc3[nH]2)c1C , please?
Result block: 69.5

----------
System: Plasmodium berghei
protocol.notes: Luciferase/luciferin-expressing antifolate-resistant parasites were used to infect a culture of HepG2 cells that were pre-incubated with compounds. Infected hepatocytes emit light due to the luciferase reaction. Assay results are presented as the percent inhibition of light emission compared to control. […]
Type: functional
run.parameters: sporozoite, read-out: LUCIFERASE INFECTION ASSAY - IC90
// reported IC90 per item

Query block: Name the recorded IC90 for COc1ccc(-c2cnc3ccc(NCc4ccc(F)cc4)nn23)cc1 .
Result block: 3.94 µM
